Read-out: Vascular cell adhesion molecule 1 (VCAM1), VCAM1 (gene 7412)
protocol summary: BSK_4H_VCAM1: BioMAP Diversity Plus: 4H Assay for Vascular cell adhesion molecule 1 (VCAM1) Biomarker Activity (AID 2283033)
stated conditions: primary human endothelial cells (HUVEC); actives raise or lower the signal
Calls of active or inactive are those of the source. The calls were made as follows: active = hit-call score of the fitted dose curve at least 0.9, where 1 is the maximum; inactive = score below 0.9.
Hi there, use one of these labels in your reply, thanks! True for active, False for inactive

Worked cases, answers included:
{"compound": "O=C1c2c(O)ccc(Nc3ccc(CCO)cc3)c2C(=O)c2c([N+](=O)[O-])ccc(O)c21", "class label": "True"}
{"compound": "O=C=NCc1cccc(CN=C=O)c1", "class label": "False"}
{"compound": "CCOC(C=C(C)CCC=C(C)C)OCC", "class label": "True"}
{"compound": "Cc1cc(C)c(O)c(C(C)(C)C)c1", "class label": "True"}
{"compound": "C=C(C)C(=O)OCC(F)(F)C(F)(F)C(F)(F)C(F)F", "class label": "False"}
{"compound": "CNS(=O)(=O)C(F)(F)C(F)(F)C(F)(F)C(F)(F)C(F)(F)C(F)(F)C(F)(F)C(F)(F)F", "class label": "False"}
{"compound": "OCC(O)CC(F)(F)C(F)(F)C(F)(F)C(F)(F)C(F)(F)C(F)(F)C(F)(F)C(F)(F)F (configuration not stated)", "class label": "False"}
{"compound": "O=C=Nc1cccc2c(N=C=O)cccc12", "class label": "False"}

Prompt: Test call for this compound, please: "CN(C(=O)C(F)(F)C(F)(F)C(F)(F)F)[Si](C)(C)C"
Completion: False

* * *

Read-out: Interleukin-8 (IL8), CXCL8 (gene 3576)
protocol summary: BSK_3C_IL8: BioMAP Diversity Plus: 3C Assay for Interleukin-8 (IL8) Biomarker Activity (AID 2283020)
stated conditions: primary human endothelial cells (HUVEC); actives raise or lower the signal
Active and inactive are the calls of the source. The calls were made as follows: active = hit-call score of the fitted dose curve at least 0.9, where 1 is the maximum; inactive = score below 0.9.
Hi there, use one of these labels in your reply, thanks! active, inactive

{"chemical string": "Cc1cc(O)c(C(C)(C)C)cc1C(C)(C)C", "class label": "active"}
{"chemical string": "O=C(O)CCC(F)(F)C(F)(F)C(F)(F)F", "class label": "inactive"}
{"chemical string": "FC(F)(F)C(F)(F)C(F)(F)C(F)(F)C(F)(F)C(F)(F)C(F)(F)CCI", "class label": "inactive"}

Prompt: Test call for this compound, please: "NCC(F)(F)C(F)(F)C(F)(F)C(F)(F)C(F)(F)C(F)(F)C(F)(F)C(F)(F)F"
Completion: inactive

Prompt: Test call for this compound, please: "OCC(F)(F)C(F)(F)C(F)(F)C(F)(F)C(F)(F)C(F)(F)C(F)(F)C(F)(F)CO"
Completion: inactive

* * *

protocol summary: ATG_TA_CIS: Attagene CIS-FACTORIAL HepG2 Assay for human TA Basal Promoter (AID 2282964)
stated conditions: HepG2 Attagene CIS-factorial TA basal promoter reporter; actives raise or lower the signal
Active and inactive are the calls of the source. How the source made its calls: active means hit-call score of the fitted dose curve at least 0.9, where 1 is the maximum; inactive means score below 0.9.
Hi there, use one of these labels in your reply, thanks! T = active, F = inactive

{"compound": "C=C(C)C(=O)OCC(F)(F)C(F)(F)C(F)(F)C(F)F", "class label": "F"}
{"compound": "O=C(c1ccccc1)c1ccc(O)cc1O", "class label": "F"}
{"compound": "O=S(=O)(OCC(F)(F)F)C(F)(F)C(F)(F)C(F)(F)C(F)(F)F", "class label": "F"}
{"compound": "C=CC(=O)OCC(F)(F)C(F)(F)C(F)(F)COC(=O)C=C", "class label": "F"}
{"compound": "FC(F)(F)C(F)(F)C(F)(F)C(F)(F)C(F)(F)C(F)(F)CC[Si](Cl)(Cl)Cl", "class label": "F"}
{"compound": "CC1CCCCC1", "class label": "F"}

Prompt: Test call for this compound, please: "CCOCOCC"
Completion: F

Prompt: Test call for this compound, please: "CCN(CC)c1ccc2c(c1)Oc1cc(N(CC)CC)ccc1C21OC(=O)c2ccccc21"
Completion: F

Prompt: Test call for this compound, please: "CC(=O)CCC(C)C"
Completion: F

Prompt: Test call for this compound, please: "OCC(F)(F)C(F)(F)C(F)(F)C(F)(F)C(F)(F)C(F)(F)C(F)(F)C(F)(F)CO"
Completion: F
